Readings of Rate of hydrolysis by Collagenase for the listed compounds
System: purified collagenase
protocol_description: Rate of hydrolysis of DNP-peptide derivatives by purified collagenase (Example 15)
Type: biochemical, tadpole
experimental_conditions: 5×10^-4 M peptide, purified collagenase 6.2 U/ml, 37° C., pH 7.5; average of three experiments; extraction with ethyl acetate (* compounds: ethyl acetate-n-butanol 1:0.15)
Procedure: Purified collagenase used in Examples was prepared from cultured media of tadpole skin explants as described in Biochem. Biophs. Acta, 263 564(1972), and non-specific peptidases were prepared by subjecting 5 ml of fresh adult human serum to chromatography on a calibrated Sephadex G-200 superfine gel column equilibrated with 0.05 M Tris-HCl buffer, pH 7.5, containing 0.15 M NaCl and 5 mM CaCl2, and gathering the effluent fractions corresponding to molecular weights of 100,000-180,000. […]
Non-standard residues stand in square brackets, D forms with d. Residues, ends and D or L forms follow the SMILES beside them. *: point of attachment. Dnp = O=[N+]([O-])c1ccc(*)c([N+](=O)[O-])c1
// note: answer is a bare numeric in OD365/hr

CC[C@H](C)[C@H](NC(=O)CNC(=O)[C@H](CCC(N)=O)Nc1ccc([N+](=O)[O-])cc1[N+](=O)[O-])C(=O)N[C@@H](C)C(=O)NCC(=O)N[C@@H](CCC(N)=O)C(=O)N[C@H](CCCNC(=N)N)C(=O)O | 0

Query :: Complete the entry with Rate of hydrolysis by Collagenase for CC[C@H](C)[C@H](NC(=O)CNC(=O)[C@H](CCC(N)=O)NC(=O)[C@@H]1CCCN1c1ccc([N+](=O)[O-])cc1[N+](=O)[O-])C(=O)N[C@@H](C)C(=O)NCC(=O)N[C@H](CCCNC(=N)N)C(=O)O [Example 8, DNP-Pro-Gln-Gly-Ile-Ala-Gly-D-Arg-OH] (Dnp-PQGIAG[dR]-OH)
Result :: 0.157

Query :: Item CC[C@H](C)[C@H](NC(=O)CNC(=O)[C@H](CCC(N)=O)NC(=O)[C@@H]1CCCN1c1ccc([N+](=O)[O-])cc1[N+](=O)[O-])C(=O)N[C@@H](C)C(=O)NCC(=O)N[C@@H](CCC(N)=O)C(=O)N[C@H](CCCNC(=N)N)C(=O)O [Example 1, DNP-Pro-Gln-Gly-Ile-Ala-Gly-Gln-D-Arg-OH] (Dnp-PQGIAGQ[dR]-OH) : provide Rate of hydrolysis by Collagenase
Result :: 0.093

* * *

Test system: non-specific peptidases
protocol_description: Rate of hydrolysis of DNP-peptide derivatives by non-specific peptidases (Example 15)
Format: biochemical, human
experimental_conditions: 5×10^-4 M peptide, 37° C., pH 7.5; average of three experiments; extraction with ethyl acetate (* compounds: ethyl acetate-n-butanol 1:0.15)
Non-standard residues stand in square brackets, D forms with d. Residues, ends and D or L forms follow the SMILES beside them. *: point of attachment. Dnp = O=[N+]([O-])c1ccc(*)c([N+](=O)[O-])c1
value_kind: Rate of hydrolysis by non-specific peptidases (OD365/hr)
Give the quantity in OD365/hr, number only.

Example molecules with recorded Rate of hydrolysis by non-specific peptidases:
CC[C@H](C)[C@H](NC(=O)CNC(=O)[C@H](CCC(N)=O)Nc1ccc([N+](=O)[O-])cc1[N+](=O)[O-])C(=O)N[C@@H](C)C(=O)NCC(=O)N[C@@H](CCC(N)=O)C(=O)N[C@H](CCCNC(=N)N)C(=O)O | 0
CC(C)C[C@H](NC(=O)CNC(=O)[C@H](C)NC(=O)[C@@H]1CCCN1c1ccc([N+](=O)[O-])cc1[N+](=O)[O-])C(=O)N[C@@H](C)C(=O)NCC(=O)N[C@@H](CCC(N)=O)C(=O)N[C@H](CCCNC(=N)N)C(=O)O [Example 6, DNP-Pro-Ala-Gly-Leu-Ala-Gly-Gln-D-Arg-OH] (Dnp-PAGLAGQ[dR]-OH) | 0.051

Would you kindly look at the next entry?
Query :: Note down Rate of hydrolysis by non-specific peptidases recorded for CC[C@H](C)[C@H](NC(=O)CNC(=O)[C@H](CCC(N)=O)NC(=O)[C@@H]1CCCN1c1ccc([N+](=O)[O-])cc1[N+](=O)[O-])C(=O)N[C@@H](C)C(=O)NCC(=O)N[C@H](CCCNC(=N)N)C(=O)O [Example 8, DNP-Pro-Gln-Gly-Ile-Ala-Gly-D-Arg-OH] (Dnp-PQGIAG[dR]-OH)
Result :: 0.021
